Would you mind telling me the reported polymerase ribozyme fitness (log ratio) of each entry?
B1: TPR 5TU (parent)
chain: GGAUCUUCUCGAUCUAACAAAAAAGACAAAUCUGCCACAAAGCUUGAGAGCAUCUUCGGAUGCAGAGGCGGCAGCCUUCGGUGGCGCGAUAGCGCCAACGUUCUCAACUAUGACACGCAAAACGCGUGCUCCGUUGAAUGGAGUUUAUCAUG

Variants of: B1
ASSAY_EXPLANATION: polymerase ribozyme fitness, log enrichment relative to wild type (log ratio); higher = more active; in vitro selection for triplet polymerase activity
This sample holds only a part of the variants without activity.
Give a plain numeric answer without units written out.

Record summary for U15C C27U U53A A122G : reported polymerase ribozyme fitness (log ratio) = -1.39

Record summary for C99A U135A : reported polymerase ribozyme fitness (log ratio) = -2.77

Record summary for U53A G152U : reported polymerase ribozyme fitness (log ratio) = -3.33

Record summary for C57A C79U C93U A98U A147U : reported polymerase ribozyme fitness (log ratio) = -3.03

Record summary for U45A C85U C118G A138U : reported polymerase ribozyme fitness (log ratio) = -4.16

Record summary for U53A G59A C85G C149U : reported polymerase ribozyme fitness (log ratio) = -3.31

Record summary for A20G A21C G94A U146G : reported polymerase ribozyme fitness (log ratio) = -0.812

Record summary for G50U C54G : reported polymerase ribozyme fitness (log ratio) = -1.98

Record summary for C57G C93U A115U : reported polymerase ribozyme fitness (log ratio) = -3.44

Record summary for A49U C51U A147C : reported polymerase ribozyme fitness (log ratio) = -0.373

Record summary for G48U U134G : reported polymerase ribozyme fitness (log ratio) = -2.34
